pKi: −log10 of the molar value.
// cross-study collection: pKi for Hepatocyte growth factor receptor (Homo sapiens)

Param item = COc1ccccc1-c1cnc2c(-c3ccccn3)c(N)nn2c1 ; retrieve measured pKi. 5.30 to 6.30

Also Nc1nn2cc(-c3ccncn3)cnc2c1C(=O)N[C@H](CO)c1ccccc1 ? 5.30 to 6.30

Also COC(=O)C(N)c1ccc(-c2cnc(N)c(-c3nnnn3-c3cccc(F)c3F)c2)cc1 (stereo not shown) ? ≥ 7.00

Also Nc1ncc(C2=CCN(C(=O)C[C@@H]3CCCN3)CC2)cc1-c1nnnn1-c1cccc(F)c1F ? ≥ 7.00

Also Fc1cccc(-c2cnoc2-c2c[nH]c3ncc(-c4cccnc4)cc23)c1F ? > 6.70

Also Fc1cccc(-c2cnoc2-c2n[nH]c3ncc(Br)cc23)c1F ? 6.00 to 6.70
